# System Tested: DLL3 endogenously expressed on NCI-H82 cells (UniProt Q9NYJ7)
# Sequence (Q9NYJ7 27-618): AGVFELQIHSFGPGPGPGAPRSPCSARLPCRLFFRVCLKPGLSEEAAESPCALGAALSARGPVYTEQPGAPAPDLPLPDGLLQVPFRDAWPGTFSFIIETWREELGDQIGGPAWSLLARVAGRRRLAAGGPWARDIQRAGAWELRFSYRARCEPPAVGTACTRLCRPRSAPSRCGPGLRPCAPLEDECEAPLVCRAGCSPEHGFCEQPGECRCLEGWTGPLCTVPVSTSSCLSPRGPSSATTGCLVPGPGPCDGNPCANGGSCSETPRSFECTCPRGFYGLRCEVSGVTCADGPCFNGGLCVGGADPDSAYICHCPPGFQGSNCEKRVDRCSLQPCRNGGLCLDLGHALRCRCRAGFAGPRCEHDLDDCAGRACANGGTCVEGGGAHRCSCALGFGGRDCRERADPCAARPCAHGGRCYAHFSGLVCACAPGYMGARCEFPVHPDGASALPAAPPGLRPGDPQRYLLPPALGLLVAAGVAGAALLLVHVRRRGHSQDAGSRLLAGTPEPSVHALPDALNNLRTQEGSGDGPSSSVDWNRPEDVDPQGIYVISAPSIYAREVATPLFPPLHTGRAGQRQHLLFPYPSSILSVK
# Method: FACS on NCI-H82 cells; antibody 0.00128 nM
Quantity: MFI

INSERT INTO measurements (binder, recorded_measurement) VALUES
  ('Hab015VL4VH5a-hFc (scFv, part only; not given: VL-VH linker and human IgG1 Fc, V domains shown, not shown: another chain or arm of the molecule; a dimerising Fc or GST; small tags and cut ends) VL: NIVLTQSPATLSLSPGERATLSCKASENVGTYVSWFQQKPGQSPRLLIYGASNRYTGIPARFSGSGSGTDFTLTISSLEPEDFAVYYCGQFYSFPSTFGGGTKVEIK VH: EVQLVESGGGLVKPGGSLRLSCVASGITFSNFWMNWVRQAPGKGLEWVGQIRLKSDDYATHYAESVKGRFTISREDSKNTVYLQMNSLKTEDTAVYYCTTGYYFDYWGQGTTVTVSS', 118);

Could you now consider this next binder?
input: Give recorded MFI. Hab008L1H2a-hFc (scFv, part only; not given: VL-VH linker and human IgG1 Fc, V domains shown, not shown: another chain or arm of the molecule; a dimerising Fc or GST; small tags and cut ends) VL: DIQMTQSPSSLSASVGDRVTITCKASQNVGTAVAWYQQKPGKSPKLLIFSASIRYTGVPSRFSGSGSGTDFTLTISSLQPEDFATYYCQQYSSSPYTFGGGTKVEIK VH: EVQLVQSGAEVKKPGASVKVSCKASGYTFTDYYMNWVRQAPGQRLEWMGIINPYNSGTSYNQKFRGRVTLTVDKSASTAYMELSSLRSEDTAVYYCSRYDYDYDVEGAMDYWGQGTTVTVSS
output: 93
